target: UniProt P28223
Simple rule here: Ki less than 700 nM is true, otherwise false.

molecule | assigned class
CC1CC2(C)CC(=O)C1C1C(=O)N(CCCCN3CCN(c4ccccn4)CC3)C(=O)C12 (centres undefined) | true
COc1ccccc1N1CCN(CCCCN2C(=O)C3C4C(C)=CC(OC(C)=O)(CC4C)C3C2=O)CC1 (centres undefined) | false
COc1ccccc1N1CCN(CCCON2C(=O)C3C4C(=O)CC(C)(CC4C)C3C2=O)CC1 (centres undefined) | true
CC1CC2(C)CC(=O)C1C1C(=O)N(CCCCN3CCN(c4ccc(F)cc4)CC3)C(=O)C12 (centres undefined) | true
CC(=O)OC12C=C(C)C(C(C)C1)C1C(=O)N(OCCCN3CCN(c4ccccc4)CC3)C(=O)C12 (centres undefined) | true
COc1ccccc1N1CCN(CCCCN2C(=O)C3C4C(=O)CC(OC(C)=O)(CC4(C)C)C3C2=O)CC1 (centres undefined) | false
CC(=O)OC12C=C(C)C(C(C)C1)C1C(=O)N(OCCCN3CCN(c4ccccc4F)CC3)C(=O)C12 (centres undefined) | false
COc1ccccc1N1CCN(CCCN2C(=O)C3C4C(=O)CC(C)(CC4C)C3C2=O)CC1 (centres undefined) | true
CC1CC2(C)CC(=O)C1C1C(=O)N(CCCCN3CCN(c4ncccn4)CC3)C(=O)C12 (centres undefined) | false

---

target: 5-hydroxytryptamine receptor 2A (Homo sapiens)
Sequence (P28223 whole entry): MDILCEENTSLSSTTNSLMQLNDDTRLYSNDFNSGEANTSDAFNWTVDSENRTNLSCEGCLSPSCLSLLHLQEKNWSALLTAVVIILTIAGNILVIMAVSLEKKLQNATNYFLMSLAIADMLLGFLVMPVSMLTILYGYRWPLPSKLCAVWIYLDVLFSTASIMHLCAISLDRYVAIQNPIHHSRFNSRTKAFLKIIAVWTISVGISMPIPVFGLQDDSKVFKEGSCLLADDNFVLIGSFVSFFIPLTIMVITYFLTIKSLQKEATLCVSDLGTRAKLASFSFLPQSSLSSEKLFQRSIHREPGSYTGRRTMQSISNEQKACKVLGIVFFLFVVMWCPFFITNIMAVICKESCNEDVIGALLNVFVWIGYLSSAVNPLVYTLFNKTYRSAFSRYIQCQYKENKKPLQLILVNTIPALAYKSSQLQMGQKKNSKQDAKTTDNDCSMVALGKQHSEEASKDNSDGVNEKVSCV
pKi: −log10 of the molar value.
Here the recorded pKi is given for each entry.

molecule | pKi
COc1ccccc1N1CCN(CCCON2C(=O)C3C4C(C)=CC(OC(C)=O)(CC4C)C3C2=O)CC1 (centres undefined) | 6.17
CC(=O)OC12C=C(C)C(C(C)C1)C1C(=O)N(OCCCN3CCN(c4cccc(Cl)c4)CC3)C(=O)C12 (centres undefined) | 6.42
CC(=O)OC12C=C(C)C(C(C)C1)C1C(=O)N(CCCCN3CCN(c4ccccn4)CC3)C(=O)C12 (centres undefined) | 6.02
CC(=O)OC12C=C(C)C(C(C)C1)C1C(=O)N(CCCCN3CCN(c4ccc(F)cc4)CC3)C(=O)C12 (centres undefined) | 6.77
CC1CC2(C)CC(=O)C1C1C(=O)N(OCCCN3CCN(c4cccc(Cl)c4)CC3)C(=O)C12 (centres undefined) | 6.96
COc1ccccc1N1CCN(CCCCN2C(=O)C3C4C(=O)CC(C)(CC4C)C3C2=O)CC1 (centres undefined) | 6.28
CC1CC2(C)CC(=O)C1C1C(=O)N(CCCCN3CCN(c4ccccc4)CC3)C(=O)C12 (centres undefined) | 6.74
CC1CC2(C)CC(=O)C1C1C(=O)N(CCCCN3CCN(Cc4ccccc4)CC3)C(=O)C12 (centres undefined) | 5.68
COc1ccccc1N1CCN(CCCON2C(=O)C3C4C=CC(OC)(CC4)C3C2=O)CC1 (centres undefined) | 5.86

---

Here the recorded Ki is given for each entry.
molecular target: 5-hydroxytryptamine receptor 2A (Homo sapiens)
endpoint: Ki (nM)

compound | value measured
CC(=O)OC12C=C(C)C(C(C)C1)C1C(=O)N(CCCCN3CCN(c4ccccc4)CC3)C(=O)C12 (stereo not drawn) | 286
CC1CC2(C)CC(=O)C1C1C(=O)N(CCCN3CCN(c4ccccc4)CC3)C(=O)C12 (stereo not drawn) | 292
COc1ccccc1N1CCN(CCCN2C(=O)C3C4C(C)=CC(OC(C)=O)(CC4C)C3C2=O)CC1 (stereo not drawn) | 1020

---

Here the recorded Ki is given for each entry.
Target: 5-hydroxytryptamine receptor 1A (Rattus norvegicus, UniProt P19327)
Sequence (P19327 whole entry): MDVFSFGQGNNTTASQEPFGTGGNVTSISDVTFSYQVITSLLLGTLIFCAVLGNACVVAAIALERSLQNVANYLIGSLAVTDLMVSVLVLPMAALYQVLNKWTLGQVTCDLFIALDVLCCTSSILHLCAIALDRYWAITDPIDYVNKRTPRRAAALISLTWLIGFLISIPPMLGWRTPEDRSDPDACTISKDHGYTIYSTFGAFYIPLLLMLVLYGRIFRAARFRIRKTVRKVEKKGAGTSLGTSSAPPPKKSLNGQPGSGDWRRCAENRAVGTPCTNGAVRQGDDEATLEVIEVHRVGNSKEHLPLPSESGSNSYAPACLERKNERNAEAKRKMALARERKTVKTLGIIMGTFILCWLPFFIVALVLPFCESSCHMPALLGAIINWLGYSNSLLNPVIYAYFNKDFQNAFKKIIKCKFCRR

compound | test target | Ki, nM
COc1ccccc1N1CCN(CCCON2C(=O)C3C4C(=O)CC(C)(CC4C)C3C2=O)CC1 (configuration not stated) | 5-hydroxytryptamine receptor 1A (Rattus norvegicus, UniProt P19327) | 124
CC1CC2(C)CC(=O)C1C1C(=O)N(CCCCN3CCN(c4ncccn4)CC3)C(=O)C12 (configuration not stated) | 5-hydroxytryptamine receptor 1A (Rattus norvegicus, UniProt P19327) | 1520
COc1ccccc1N1CCN(CCCCN2C(=O)C3C4C(=O)CC(OC(C)=O)(CC4(C)C)C3C2=O)CC1 (configuration not stated) | 5-hydroxytryptamine receptor 1A (Rattus norvegicus, UniProt P19327) | 22
COc1ccccc1N1CCN(CCCON2C(=O)C3C4C=CC(OC)(CC4)C3C2=O)CC1 (configuration not stated) | 5-hydroxytryptamine receptor 1A (Rattus norvegicus, UniProt P19327) | 31
COc1ccccc1N1CCN(CCCN2C(=O)C3C4C(C)=CC(OC(C)=O)(CC4C)C3C2=O)CC1 (configuration not stated) | 5-hydroxytryptamine receptor 1A (Rattus norvegicus, UniProt P19327) | 35
CC(=O)OC12C=C(C)C(C(C)C1)C1C(=O)N(CCCCN3CCN(Cc4ccccc4)CC3)C(=O)C12 (configuration not stated) | 5-hydroxytryptamine receptor 1A (Rattus norvegicus, UniProt P19327) | 1420
CC(=O)OC12C=C(C)C(C(C)C1)C1C(=O)N(OCCCN3CCN(c4ccccc4)CC3)C(=O)C12 (configuration not stated) | 5-hydroxytryptamine receptor 1A (Rattus norvegicus, UniProt P19327) | 115
CC(=O)OC12C=C(C)C(C(C)C1)C1C(=O)N(OCCCN3CCN(c4ccccc4F)CC3)C(=O)C12 (configuration not stated) | 5-hydroxytryptamine receptor 1A (Rattus norvegicus, UniProt P19327) | 80
COc1ccccc1N1CCN(CCCCN2C(=O)C3C4C(=O)CC(C)(CC4C)C3C2=O)CC1 (configuration not stated) | 5-hydroxytryptamine receptor 1A (Rattus norvegicus, UniProt P19327) | 25
CC1CC2(C)CC(=O)C1C1C(=O)N(CCCCN3CCN(c4ccc(F)cc4)CC3)C(=O)C12 (configuration not stated) | 5-hydroxytryptamine receptor 1A (Rattus norvegicus, UniProt P19327) | 521
CC(=O)OC12C=C(C)C(C(C)C1)C1C(=O)N(CCCCN3CCN(c4ccccn4)CC3)C(=O)C12 (configuration not stated) | 5-hydroxytryptamine receptor 1A (Rattus norvegicus, UniProt P19327) | 97
CC1CC2(C)CC(=O)C1C1C(=O)N(CCCCN3CCN(c4ccccc4)CC3)C(=O)C12 (configuration not stated) | 5-hydroxytryptamine receptor 1A (Rattus norvegicus, UniProt P19327) | 50

---

Below are log10 of Ki values recorded for 5-hydroxytryptamine receptor 1A (Rattus norvegicus, UniProt P19327).
endpoint: log10 of Ki (log10 of the value in nM)

compound | log10 of Ki
COc1ccccc1N1CCN(CCCN2C(=O)C3C4C(=O)CC(C)(CC4C)C3C2=O)CC1 (stereo not drawn) | 1.64
CC(=O)OC12C=C(C)C(C(C)C1)C1C(=O)N(CCCCN3CCN(c4ccccc4)CC3)C(=O)C12 (stereo not drawn) | 1.53
CC(=O)OC12C=C(C)C(C(C)C1)C1C(=O)N(OCCCN3CCN(c4cccc(Cl)c4)CC3)C(=O)C12 (stereo not drawn) | 1.57
CC(=O)OC12C=C(C)C(C(C)C1)C1C(=O)N(CCCCN3CCN(c4ncccn4)CC3)C(=O)C12 (stereo not drawn) | 2.90
COc1ccccc1N1CCN(CCCON2C(=O)C3C4C(C)=CC(OC(C)=O)(CC4C)C3C2=O)CC1 (stereo not drawn) | 1.43
CC(=O)OC12C=C(C)C(C(C)C1)C1C(=O)N(OCCCN3CCN(c4ccccn4)CC3)C(=O)C12 (stereo not drawn) | 2.30
COc1ccccc1N1CCN(CCCCN2C(=O)C3C4C(C)=CC(OC(C)=O)(CC4C)C3C2=O)CC1 (stereo not drawn) | 1.00
CC1CC2(C)CC(=O)C1C1C(=O)N(OCCCN3CCN(c4cccc(Cl)c4)CC3)C(=O)C12 (stereo not drawn) | 1.96
